Task for the reader: assign each of the following compounds its reported melting point.

COc1ccc(-c2ncnc3c2[C@@H]2OC[C@H](CN3)N2S(=O)(=O)c2ccc([N+](=O)[O-])cc2)cc1    250 to 252 °C
CC(C)N(Cc1ccccc1)c1ncnc2c1[C@@H]1OC[C@H](CN2)N1S(=O)(=O)c1ccc([N+](=O)[O-])cc1    85 to 87 °C
CN(Cc1ccccc1)c1ncnc2c1[C@@H]1OC[C@H](CN2)N1S(=O)(=O)c1ccc(F)cc1    105 to 107 °C
C=C(C)c1ncnc2c1[C@@H]1OC[C@H](CN2)N1S(=O)(=O)c1ccc([N+](=O)[O-])cc1    200 to 202 °C
CN(Cc1ccc(Cl)cc1)c1ncnc2c1[C@@H]1OC[C@H](CN2C(=O)C2CC2)N1S(=O)(=O)c1ccc([N+](=O)[O-])cc1    124 to 126 °C
CN(Cc1ccccc1)c1ncnc2c1[C@@H]1OC[C@H](CN2)N1S(=O)(=O)c1cccs1    112 to 114 °C

Q: For the compound shown here, "CN(CCc1ccccc1)c1ncnc2c1[C@@H]1OC[C@H](CN2)N1S(=O)(=O)c1ccc([N+](=O)[O-])cc1" , give the reported melting point.
Ans: 108 to 110 °C

----------
Experiment: Pharmacokinetics test in male ICR mice
Type: in vivo
Conditions: male, CD-1 (ICR), mouse, plasma, ip, 5 mg/kg, I.P., read-out: T1/2 (converted)
Measured attribute: half-life (h)
Answers are plain numbers, in h.

Q: For the compound shown here, "CN(Cc1ccc(Cl)cc1)c1ncnc2c1[C@@H]1OC[C@H](CN2)N1S(=O)(=O)c1ccc([N+](=O)[O-])cc1" , give the reported half-life.
Ans: 6.57

----------
Test: Pharmacokinetics test in male ICR mice
Assay type: in vivo
Conditions: CD-1 (ICR), mouse, plasma, iv, I.V., 5 mg/kg
Measured attribute: clearance (mL/min/kg)
Numbers only, in mL/min/kg.

Q: For the compound shown here, CN(Cc1ccc(Cl)cc1)c1ncnc2c1[C@@H]1OC[C@H](CN2)N1S(=O)(=O)c1ccc([N+](=O)[O-])cc1 [Compound 117] , give the reported clearance.
Ans: 18.7

----------
Test: Blood-brain barrier penetration test in male ICR mice
Format: in vivo, mouse
Settings: CD-1 (ICR), mouse, brain, ip, 0.5 h after I.P. 5 mg/kg, read-out: Brain/Plasma ratio
Measured attribute: Kp at 0.5 h

Q: For the compound shown here, "CN(Cc1ccc(Cl)cc1)c1ncnc2c1[C@@H]1OC[C@H](CN2)N1S(=O)(=O)c1ccc([N+](=O)[O-])cc1" , give the reported Kp at 0.5 h.
Ans: 0.5

----------
Assay: Pharmacokinetics test in male ICR mice
Format: in vivo
Details: CD-1 (ICR), mouse, plasma, iv, I.V., 5 mg/kg
Protocol: After intravenous or intraperitoneal administration (5 mg/kg, 3.3 mL/kg) of the compound (SB1617, 5% DMSO/[…]) according to the present invention to CD-1 (ICR) male mice (7 weeks old, KOATECH, Korea), blood was collected at designated time points from the orbital venous plexus. The concentration of the compound (SB1617) according to the present invention was examined from the plasma samples using an LC-MS/MS analyzer (Agilent 1200, 4000 Qtrap). […]
Measured attribute: AUC(0-t) (ng·h/mL)
One number for each entry, in ng·h/mL.

Q: For the compound shown here, CN(Cc1ccc(Cl)cc1)c1ncnc2c1[C@@H]1OC[C@H](CN2)N1S(=O)(=O)c1ccc([N+](=O)[O-])cc1 [Compound 117] , give the reported AUC(0-t).
Ans: 4190

----------
Experiment: Blood-brain barrier penetration test in male ICR mice
Assay type: in vivo, mouse
Conditions: CD-1 (ICR), mouse, in vivo, ip, I.P. 5 mg/kg, read-out: SB1617 detected in the brain compared to plasma
Measured attribute: Kp

Q: For the compound shown here, "CN(Cc1ccc(Cl)cc1)c1ncnc2c1[C@@H]1OC[C@H](CN2)N1S(=O)(=O)c1ccc([N+](=O)[O-])cc1" , give the reported Kp.
Ans: ≥ 0.5

----------
Assay: Pharmacokinetics test in male ICR mice
Format: in vivo
Settings: CD-1 (ICR), mouse, plasma, iv, I.V., 5 mg/kg, read-out: Vss
Measured attribute: Vd (L/kg)
One number for each entry, in L/kg.

Q: For the compound shown here, "CN(Cc1ccc(Cl)cc1)c1ncnc2c1[C@@H]1OC[C@H](CN2)N1S(=O)(=O)c1ccc([N+](=O)[O-])cc1" , give the reported Vd.
Ans: 6.27

----------
Test: Pharmacokinetics test in male ICR mice
Type: in vivo
Conditions: CD-1 (ICR), mouse, plasma, iv, I.V., 5 mg/kg
Measured attribute: AUC(0-inf)
Answer as a quantity: numeral, then unit.

Q: For the compound shown here, "CN(Cc1ccc(Cl)cc1)c1ncnc2c1[C@@H]1OC[C@H](CN2)N1S(=O)(=O)c1ccc([N+](=O)[O-])cc1" , give the reported AUC(0-inf).
Ans: 4490 ng·h/mL

----------
Assay: Pharmacokinetics test in male ICR mice
Assay type: in vivo
Conditions: CD-1 (ICR), mouse, plasma, ip, I.P., 5 mg/kg
Measured attribute: AUC(0-inf) (ng·h/mL)
Numbers only, in ng·h/mL.

Q: For the compound shown here, "CN(Cc1ccc(Cl)cc1)c1ncnc2c1[C@@H]1OC[C@H](CN2)N1S(=O)(=O)c1ccc([N+](=O)[O-])cc1" , give the reported AUC(0-inf).
Ans: 5650

----------
Test: Pharmacokinetics test in male ICR mice
Format: in vivo
Conditions: CD-1 (ICR), mouse, plasma, ip, I.P., 5 mg/kg
Measured attribute: Cmax (ng/mL)
Numbers only, in ng/mL.

Q: For the compound shown here, "CN(Cc1ccc(Cl)cc1)c1ncnc2c1[C@@H]1OC[C@H](CN2)N1S(=O)(=O)c1ccc([N+](=O)[O-])cc1" , give the reported Cmax.
Ans: 857

----------
Task for the reader: assign each of the following compounds its reported melting point.

// known answers, use as guide
CN(Cc1ccccc1)c1ncnc2c1[C@@H]1OC[C@H](CN2)N1S(=O)(=O)c1ccc([N+](=O)[O-])cc1    97 to 99 °C
CN(Cc1ccccc1)c1ncnc2c1[C@@H]1OC[C@H](CN2)N1S(=O)(=O)c1ccccc1    120 to 122 °C
CN(Cc1ccccc1)c1ncnc2c1[C@@H]1OC[C@H](CN2)N1S(=O)(=O)c1cccnc1    185 to 187 °C
CN(Cc1ccccc1)c1ncnc2c1[C@@H]1OC[C@H](CN2)N1S(C)(=O)=O    136 to 138 °C
Cc1ccc(S(=O)(=O)N2[C@H]3CNc4ncnc(N(C)Cc5ccccc5)c4[C@@H]2OC3)cc1    150 to 152 °C

Need melting point for each of these compounds.
1. COc1ccc(S(=O)(=O)N2[C@H]3CNc4ncnc(N(C)Cc5ccc(Cl)cc5)c4[C@@H]2OC3)cc1
2. CN(Cc1ccc(Cl)cc1)c1ncnc2c1[C@@H]1OC[C@H](CN2)N1S(=O)(=O)c1ccc(F)cc1
3. CN(Cc1ccc(F)cc1)c1ncnc2c1[C@@H]1OC[C@H](CN2)N1S(=O)(=O)c1ccc([N+](=O)[O-])cc1
4. CN(Cc1ccc(N=[N+]=[N-])cc1)c1ncnc2c1[C@@H]1OC[C@H](CN2)N1S(=O)(=O)c1ccc([N+](=O)[O-])cc1
5. CN(C)c1ncnc2c1[C@@H]1OC[C@H](CN2)N1S(=O)(=O)c1ccc([N+](=O)[O-])cc1
6. C#Cc1ccc(S(=O)(=O)N2[C@H]3CNc4ncnc(N(C)Cc5ccc(N=[N+]=[N-])cc5)c4[C@@H]2OC3)cc1

Ans:
1. 156 to 158 °C
2. 150 to 152 °C
3. 102 to 104 °C
4. 88 to 90 °C
5. 118 to 120 °C
6. 139 to 141 °C

Need melting point for each of these compounds.
1. COc1ccc(S(=O)(=O)N2[C@H]3CNc4ncnc(N(C)Cc5ccccc5)c4[C@@H]2OC3)cc1
2. CN(Cc1ccccc1)c1ncnc2c1[C@@H]1OC[C@H](CN2)N1S(=O)(=O)Cc1ccccc1
3. CC(=O)N1C[C@H]2CO[C@@H](c3c(N(C)Cc4ccc(Cl)cc4)ncnc31)N2S(=O)(=O)c1ccc([N+](=O)[O-])cc1

Ans:
1: 121 to 123 °C; 2: 78 to 80 °C; 3: 105 to 107 °C

----------
Assay: Blood-brain barrier penetration test in male ICR mice
Assay type: in vivo, mouse
Details: male, CD-1 (ICR), mouse, in vivo, ip, 5 mg/kg, 0.5 h after I.P. 5 mg/kg, read-out: Concentration, Plasma
Measured attribute: concentration at 0.5 h
Answer as a quantity: numeral, then unit.

Q: For the compound shown here, "CN(Cc1ccc(Cl)cc1)c1ncnc2c1[C@@H]1OC[C@H](CN2)N1S(=O)(=O)c1ccc([N+](=O)[O-])cc1" , give the reported concentration at 0.5 h.
Ans: 0.885 µg/mL
